Answer each item with its documented composite z-score.
experiment: small-molecule binders of probe aNOTCH3, primary screen, biochemical, small-molecule microarray, 635/667 nm fluorescence (AID 1120); details: higher = more signal;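 note: probe is a biotin-tagged antibody raised against NOTCH3 rather than NOTCH3 protein; score merges spot fluorescence near 667 nm with spot signal to noise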
Note: the reply should be a number with no unit written.

composite z-score lookup needed for COCCOC(=O)N1C(=O)[C@@]2(c3ccccc31)[C@H](C(N)=O)[C@H]1C(=O)O[C@H](c3ccccc3)[C@H](c3ccccc3)N1[C@@H]2c1ccc(OCCO)cc1 , thanks. -0.0055

Check COC(=O)[C@@]1(CCC(=O)OC(C)(C)C)N=C(c2ccc(OCCCO)cc2)O[C@H]1c1ccccc1CN=[N+]=[N-] too. -0.0984

Check COc1ccc([Si](C)(C)[C@H]2[C@H](CCn3cc([C@H](O)c4ccccc4)nn3)O[C@@]3(C(=O)N(c4ccccc4)c4ccccc43)[C@@H]2C)cc1 too. -0.0879
